The compounds below have reported pKi for rat striatal 5HT6 receptors (Rattus norvegicus).
Schema: pKi number; meaning minus log10 of the concentration expressed in molar units.

chemical_string: CN[C@H]1COc2c(S(=O)(=O)Nc3ccccc3)ccc(OC)c2C1
pKi: 7.52
--
chemical_string: CCc1ccc(S(=O)(=O)Nc2ccc(F)c(Cl)c2)c2c1C[C@@H](N(C)C)CO2
pKi: 6.54
--
chemical_string: COc1ccc(S(=O)(=O)Nc2cc(Cl)cc(Cl)c2)c2c1C[C@@H](N1CCCC1)CO2
pKi: 7.57
--
chemical_string: CN[C@H]1CCc2c(S(=O)(=O)Nc3ccc(Cl)cc3)ccc(OC)c2C1
pKi: 7.92
--
chemical_string: COc1ccc(S(=O)(=O)Nc2ccccn2)c2c1C[C@@H](N(C)C)CC2
pKi: 7.77

[ask] Look up and report pKi, with rat striatal 5HT6 receptors (Rattus norvegicus) as system, for `COc1ccc(S(=O)(=O)N2CCc3ccccc3C2)c2c1C[C@@H](N(C)C)CC2`
Sequence (P31388 whole entry): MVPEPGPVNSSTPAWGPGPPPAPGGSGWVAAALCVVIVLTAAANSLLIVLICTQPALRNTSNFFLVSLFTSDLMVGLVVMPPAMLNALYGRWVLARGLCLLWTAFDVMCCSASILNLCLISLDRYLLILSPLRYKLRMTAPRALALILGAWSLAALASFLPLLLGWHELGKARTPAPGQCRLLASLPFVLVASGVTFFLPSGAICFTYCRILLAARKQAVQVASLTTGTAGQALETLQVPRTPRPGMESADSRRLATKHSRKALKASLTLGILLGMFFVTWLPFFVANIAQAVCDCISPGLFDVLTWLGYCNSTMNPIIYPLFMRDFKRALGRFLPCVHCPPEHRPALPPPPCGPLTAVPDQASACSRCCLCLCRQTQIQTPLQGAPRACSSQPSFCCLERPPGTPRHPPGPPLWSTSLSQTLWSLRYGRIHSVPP
[reply] 8.38
